Listing of entries alongside the reported % inhibition at 100 µM.
target.entity: Trypsin, Iodination grade, from human pancreas (human, UniProt P07477 24-247)
experimental.protocol: cell-based or functional assay

>  <binder>
FCTKSDPPICS (HELM PEPTIDE1{F.C.T.K.S.D.P.P.I.C.S.[dA].P}$PEPTIDE1,PEPTIDE1,2:R3-10:R3|PEPTIDE1,PEPTIDE1,1:R1-13:R2$$$V2.0; SMILES CC[C@H](C)[C@@H]1NC(=O)[C@@H]2CCCN2C(=O)[C@@H]2CCCN2C(=O)[C@H](CC(=O)O)NC(=O)[C@H](CO)NC(=O)[C@H](CCCCN)NC(=O)[C@H]([C@@H](C)O)NC(=O)[C@@H]2CSSC[C@H](NC1=O)C(=O)N[C@@H](CO)C(=O)N[C@H](C)C(=O)N1CCC[C@H]1C(=O)N[C@@H](Cc1ccccc1)C(=O)N2) [Example 49]

>  <% inhibition at 100 µM [%]>
96

$$$$
>  <binder>
ICTKSDPPXCR (HELM PEPTIDE1{I.C.T.K.S.D.P.P.[Cha].C.R.[dP].P}$PEPTIDE1,PEPTIDE1,2:R3-10:R3|PEPTIDE1,PEPTIDE1,1:R1-13:R2$$$V2.0; SMILES CC[C@H](C)[C@@H]1NC(=O)[C@@H]2CCCN2C(=O)[C@H]2CCCN2C(=O)[C@H](CCCNC(=N)N)NC(=O)[C@@H]2CSSC[C@H](NC1=O)C(=O)N[C@@H]([C@@H](C)O)C(=O)N[C@@H](CCCCN)C(=O)N[C@@H](CO)C(=O)N[C@@H](CC(=O)O)C(=O)N1CCC[C@H]1C(=O)N1CCC[C@H]1C(=O)N[C@@H](CC1CCCCC1)C(=O)N2) [Example 20]

>  <% inhibition at 100 µM [%]>
97

$$$$
